The reported measurements were obtained from patent US6982260B1.

Molecular target: cdk2/cyclinE (Homo sapiens, UniProt P24941)
Assay: cdk2/cyclinE kinase assay
Settings: 32P incorporation into retinoblastoma, 25° C., 15 minutes; read-out: Cdk2E IC50
Documented IC50 across a set of compounds
Just the number please, in nM, no unit attached.

# annotated cases, reported IC50 shown
>  <COMPOUND>
COc1ccc2cnc(Nc3ccc(N4CCC(N)C4)cc3)nc2c1C1CCCC1 (stereo not shown) [Example 41]

>  <MEASUREMENT_TARGET>
cdk2/cyclinE (Homo sapiens, UniProt P24941)

>  <RECORDED_RESULT>
950

$$$$
>  <COMPOUND>
COc1ccc2cnc(Nc3ccc(N4CCN(C(=O)C(N)CC(C)C)CC4)cc3)nc2c1C1CCCC1 (stereo not shown) [Example 42]

>  <MEASUREMENT_TARGET>
cdk2/cyclinE (Homo sapiens, UniProt P24941)

>  <RECORDED_RESULT>
500

$$$$
>  <COMPOUND>
COc1ccc2cnc(Nc3ccccc3)nc2c1C(C)C [Example 19]

>  <MEASUREMENT_TARGET>
cdk2/cyclinE (Homo sapiens, UniProt P24941)

>  <RECORDED_RESULT>
1080

$$$$

Qu. Look at this compound and give its reported IC50. COc1ccc2cnc(Nc3ccc(N4CCNCC4)cc3)nc2c1C1CCCC1 [Example 27]
Ans. 250

Qu. Look at this compound and give its reported IC50. COc1ccc2cnc(Nc3ccc(N4CCOCC4)c(F)c3)nc2c1C(C)C [Example 38]
Ans. 2750
